A collection of molecules and their measured EC50
- System tested: human somatostatin receptor subtype 2 (Homo sapiens, UniProt P30874)
- Construct: expressed in transfected cells
- Sequence (P30874 whole entry): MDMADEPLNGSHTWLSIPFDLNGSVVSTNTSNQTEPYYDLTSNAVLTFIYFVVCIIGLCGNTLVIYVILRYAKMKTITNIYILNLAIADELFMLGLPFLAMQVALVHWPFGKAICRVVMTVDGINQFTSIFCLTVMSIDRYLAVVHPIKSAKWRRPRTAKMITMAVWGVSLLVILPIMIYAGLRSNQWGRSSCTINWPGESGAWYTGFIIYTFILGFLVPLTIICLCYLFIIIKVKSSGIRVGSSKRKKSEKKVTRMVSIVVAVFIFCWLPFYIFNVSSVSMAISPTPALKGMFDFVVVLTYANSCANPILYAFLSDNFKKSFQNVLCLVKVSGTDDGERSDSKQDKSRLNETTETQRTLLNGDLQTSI
- Assay protocol: Functional cAMP assay for SSTR2 agonists (HTRF) in CHO-K1 cells
- Type: cell-based
- Assay setup: hSST2 cAMP Avg EC50 (nM), CHO-K1 cells stably expressing human SST2, 20 min
Response body: numeric value in nM, unit text excluded.

Observe how each entry below is paired with its result.
{"columns": ["Molecule", "EC50, nM"],
 "data": [
  ["CC[C@@]1(O)C(=O)OCc2c1cc1n(c2=O)Cc2c-1nc1cc(F)c(C)c3c1c2[C@@H](NC(=O)OCc1ccc(NC(=O)[C@H](CCCNC(N)=O)NC(=O)[C@@H](NC(=O)CN2CCN(CC(=O)O)CCN(CC(=O)NCCOCCC(=O)NCCNc4ncc(-c5cc(C)cc(F)c5)c(N5CCC(N)CC5)c4-c4nc5ccc(Cl)cc5[nH]4)CC2)C(C)C)cc1)CC3 [Compound 72]", 0.28],
  ["CC[C@@]1(O)C(=O)OCc2c1cc1n(c2=O)Cc2c-1nc1cc(F)c(C)c3c1c2[C@@H](NC(=O)OCc1ccc(NC(=O)[C@H](CCCNC(N)=O)NC(=O)[C@@H](NC(=O)[C@H](CCC(=O)O)NC(=O)CCOCCC(=O)NCCNc2ncc(-c4cc(C)cc(F)c4)c(N4CCC(N)CC4)c2-c2nc4ccc(Cl)cc4[nH]2)C(C)C)cc1C(=O)NCCN)CC3 [Compound 94]", 0.16]
]}

Turning now to a further record.
The measured EC50 that CC[C@@]1(O)C(=O)OCc2c1cc1n(c2=O)Cc2c-1nc1cc(F)c(C)c3c1c2[C@@H](NC(=O)OCc1ccc(NC(=O)[C@H](CCCNC(N)=O)NC(=O)[C@@H](NC(=O)CCOCCC(=O)NCCNc2ncc(-c4cc(C)cc(F)c4)c(N4CCC(N)CC4)c2-c2nc4ccc(Cl)cc4[nH]2)C(C)C)cc1C(=O)NCCN)CC3 [Compound 90] showed for human somatostatin receptor subtype 2 (Homo sapiens, UniProt P30874) is 0.22
